Assay: Oral bioavailability in beagle dog at 1.1 mg/kg
Format: ADME, organism-based, Canis lupus familiaris
Conditions: in vivo
readout-type: bioavailability
In your response, the unit should come after the numeric value.

# compound-structure, bioavailability
measured = [
    ("COc1cccc2c1c(NS(=O)(=O)c1ccc(Cl)s1)nn2Cc1cccc(CNC(C)=O)c1", "49%"),
]

Please list bioavailability recorded for the compound `COc1cccc2c1c(NS(=O)(=O)c1ccc(Cl)s1)nn2Cc1cccc(CNC(=O)C(C)(C)O)c1`
97%

###

Test: Solubility of the compound by chemiluminescent nitrogen detection assay
Assay type: physicochemical
readout-type: solubility (µg/mL)
The figure you give is taken to be in µg/mL; do not add the unit.

Below are worked cases with known answers.
# compound-structure, quantity-unit, solubility
records = [
    ("COc1cccc2c1c(NS(=O)(=O)c1ccc(Cl)s1)nn2Cc1cccc(C(=O)N(C)C)c1", "µg/mL", 160),
    ("COc1cccc2c1c(NS(=O)(=O)c1ccc(Cl)s1)nn2Cc1cccc(CN)c1", "µg/mL", 17),
    ("COc1cccc2c1c(NS(=O)(=O)c1ccc(Cl)s1)nn2Cc1ccc(CNC(C)=O)cc1", "µg/mL", 104),
    ("COc1ccc(COc2nc(Br)cnc2NS(=O)(=O)c2ccc(C)cc2)cc1OCCN(C)C", "µg/mL", 170),
]

Could you now look at the following compound, please?
Identify measured solubility associated with `CNC(=O)c1cccc(Cn2nc(NS(=O)(=O)c3ccc(Cl)s3)c3c(OC)cccc32)c1`
167

###

Molecular target: C-C chemokine receptor type 4 (Homo sapiens)
Sequence (P51679 whole entry): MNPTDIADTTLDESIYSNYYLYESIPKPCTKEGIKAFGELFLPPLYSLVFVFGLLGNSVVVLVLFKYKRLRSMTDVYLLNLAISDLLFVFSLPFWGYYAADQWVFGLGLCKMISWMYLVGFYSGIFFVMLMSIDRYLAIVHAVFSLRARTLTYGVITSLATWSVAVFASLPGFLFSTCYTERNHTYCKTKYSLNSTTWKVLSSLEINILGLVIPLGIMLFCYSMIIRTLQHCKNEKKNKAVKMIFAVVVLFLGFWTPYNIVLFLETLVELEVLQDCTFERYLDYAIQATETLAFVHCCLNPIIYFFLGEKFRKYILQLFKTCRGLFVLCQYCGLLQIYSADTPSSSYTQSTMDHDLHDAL
Experiment: Antagonist activity at human CCR4 expressed in CHO membranes assessed as inhibition of [35S]-GTPgammaS binding by scintillation counting
readout-type: IC50 (nM)
Supply the numeric figure in nM, leaving out any unit text.

# compound, IC50 [nM]
records = [
    ("COc1cccc2c1c(NS(=O)(=O)c1ccc(Cl)s1)nn2Cc1ccc(CO)cc1", 47.9),
    ("COc1cccc2c1c(NS(=O)(=O)c1ccc(Cl)s1)nn2Cc1cccc(CNC(=O)C(C)O)c1 (centres undefined)", 12.6),
    ("COc1cccc2c1c(NS(=O)(=O)c1ccc(Cl)s1)nn2Cc1ccccc1CO", 324),
]

// switching to the query compound
Quick one: give measured IC50 for `COc1cccc2c1c(NS(=O)(=O)c1ccc(Cl)s1)nn2Cc1cccc(C(N)=O)c1`
55

###

Assay: Clearance in CD rat at 1 mg/kg, iv and 1 mg/kg, po
Conditions: in vivo
readout-type: clearance (mL/min/kg)
Answer format: numeric, mL/min/kg implied, no suffix.

Write down clearance measured for item `COc1cccc2c1c(NS(=O)(=O)c1ccc(Cl)s1)nn2Cc1cccc(CNC(=O)C(C)(C)O)c1`
15

###

Measurement record for UniProtKB P51679; quantity recorded: pKi.
# pKi = -log10(concentration in molar units)

# compound, pKi
data = [
    ("COc1cccc2c1c(NS(=O)(=O)c1ccc(Cl)s1)nn2Cc1cccc(CNC(=O)C(C)(C)O)c1", 8.00),
]

Answer with the recorded pKi for the compound listed here: `COc1cccc2c1c(NS(=O)(=O)c1ccc(Cl)s1)nn2Cc1cccc(C(N)=O)c1`
7.40

Quick one: give measured pKi for `COc1ccccc1Cn1nc(NS(=O)(=O)c2ccc(Cl)s2)c2c(OC)cccc21`
6.80

Given the compound `COc1cccc2c1c(NS(=O)(=O)c1ccc(Cl)s1)nn2Cc1ccccc1CO` , write its reported pKi.
6.60

Quote pKi reported for `COc1cccc2c1c(NS(=O)(=O)c1ccc(Cl)s1)nn2Cc1cccc(CN)c1` please.
7.00

Tell me pKi reported for COc1cccc2c1c(NS(=O)(=O)c1ccc(Cl)s1)nn2Cc1cccc(CNC(=O)C(C)O)c1 (stereo unspecified)
8.10
